Sourced from patent US20210238281A1

assayed target: T1, recombinant human MOG protein (human, UniProt Q16653 30-154, limits assumed)
T1 construct: Bought recombinant protein; also called HMOG
T1 sequence (looked up): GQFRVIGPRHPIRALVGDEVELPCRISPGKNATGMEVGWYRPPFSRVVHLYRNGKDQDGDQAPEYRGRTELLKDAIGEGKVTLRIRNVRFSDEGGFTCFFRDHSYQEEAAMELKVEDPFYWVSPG
test description: phage-scFv ELISA on coated recombinant human MOG (0.5 µg/well), anti-M13 HRP, OD450 over BSA background
reported property: ratio OD on target/OD bdf

Worked cases, ratio OD on target/OD bdf given:
binder | ratio OD on target/OD bdf
anti-MOG MO3B-03 antibody (scFv, V domains shown, T0004 labels followed) VH: QVQLQQSGPGLVRPSQTLSLTCAISGDSVSSSSAAWNWVRSPSRGLEWLGRTYYRSKWYYDYAVSVKNRIAINPDTSKNQFSLHLNSVTPEDTAVYYCATGWLRGHLDYWGQGTLVTVSS VL: AIQMTQSPSSVSASVGDRVTITCRATQSISTYLNWYQQKVGRGPKLLVYAASRLQTGVPSRFSGSGSGTDFTLTISSLQPEDSATYYCQQSYSAPPAFGGGTKVEIK | 6.23 ratio
anti-MOG MO3J-37 antibody (scFv, V domains shown) VH: EVQLVESGGGLVQPGRSLRLSCAASGFTFDDYAMHWVRQAPGKGLEWVSGISWNSGSIGYADSVKGRFTISRDNAKNSLYLQMNSLRAEDTALYYCAKDMRAVAGTEGAFDIWGQGTMVTVSS VL: QSVVTQPPSMSAAPGQKVTISCSGSSSNIGNNYVSWYQQLPGTAPKLLIYENNKRPSGISDRFSGSKSGTSATLGITGLQTGDEADYYCATGDSGMTLVFGGGTKLTVL | 12.9 ratio
anti-MOG MO3J-23 antibody (scFv, V domains shown) VH: DQVQLVQSGAEVKPGASVKVSCKASGYTFTSYGISWVRQAPGQGLEWMGWISAYNGNTNYAQKLQGRVTMTTDTSTSTAYMELRSLRSDDTAVYYCARDPVGSLRPYYMDVWGEGTTVTVSS VL: DIVMTQSPSTLSASVGDRVTITCRASQSISTWLAWYQQKPGKAPKLLIYAASSLQSGVPSRFSGSGSGTDFTLTISSLQPEDFATYYCQQSYSTPRTFGQGTKVEIK | 15.9 ratio
anti-MOG MO3J-26 antibody (scFv, V domains shown) VH: QVQLVQSGAEVKKPGSSVKVSCKASGGTFSTYTLSWVRQAPGKGLEWMGGFDPEDGETIYAQKFQGRVTMTEDTSTDTAYLELSSLRSDDTAVYYCAADEFWGPGTLVTVSS VL: QSVLTQPPSVSAAPGQTVTISCSGSSSNIGNNYVSWYQQLPGTAPKLLIYDNNKRPSGIPDRFSGSKSGTSATLGITGLQTGDEADYYCGTWDSSLSAVVFGGGTKLTVL | 14.6 ratio

Prompt: Give ratio OD on target/OD bdf for the following binder: anti-MOG MO4H-118 antibody (scFv, V domains shown) VH: EVQLVQSGAEVKKPGASVKVSCKVSGYTLTELSMHWVRQAPGKGLEWMGGFDPEDGETIYAQKFQGRVTMTEDTSTDTAYMELSSLRSEDTAVYYCATIGPKVAAHTYYFDYWGQGTLVTVSS VL: DIQLTQSPSSLSASVGDRVTITCRASQTIVTYLNWYQQKPGKAPNLLITDASSLQSGVPSRFSGTESGTDFTLTISSLQPEDFGSYYCQSYMNPITFGQGTRLEIN
Response: 2.04 ratio
